B1: SNURF (parent)
chain: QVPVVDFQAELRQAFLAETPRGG

Variants of: B1
assay: protein stability index of a GFP-peptide fusion (GPS, HEK-293T) (PSI 1-6); higher = more stable;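 note: lentivirally expressed fusions sorted by FACS into six bins by GFP to DsRed ratio, PSI derived from sequencing read proportions per bin multiplied by bin number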
experimental_setup: c terminus: native
Label met when protein stability index is at or above 3; otherwise label not met.

{"columns": ["mutation_list", "group_label"],
 "data": [
  ["L11K", "met"],
  ["D6N", "met"],
  ["G22T", "not met"],
  ["L11P", "met"],
  ["P20Y", "met"],
  ["A14P", "not met"]
]}

Please tell me: is the variant G23K at or over 3 in terms of protein stability index?
met

For this variant, is measured protein stability index 3 or higher? P20W
met

Is the recorded value of protein stability index equal to or greater than 3 for this variant? P3Q
met

Threshold query (protein stability index >= 3) on R12M
met

Check if protein stability index >= 3 (inclusive). Item: Q8T
met

State whether the measured protein stability index reaches 3, counting equality as reaching it, for F15G
met

Kindly determine if protein stability index recorded for T19R is above or exactly 3.
not met

Hi team, for G22F , is the recorded protein stability index at or above 3?
not met

Can V5L be said to have protein stability index at or above 3?
met

# credit: the supplement of paper PMC10567573
